Parameter: phosphorylation enrichment. Scope: all listed entries.
Tested on: c-Src
Assay: phosphorylation enrichment, bacterial display (enrichment ratio); higher = better substrate or ligand; peptides without Tyr show the background;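 also: 11-residue human phosphosite peptides and single-mutation variants displayed on the E. coli surface, counted by deep sequencing, each peptide's frequency after selection divided by its frequency in the unselected input library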;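 also: frequency after pTyr selection over input frequency; kinase dosed for 20-30% of maximal phosphorylation in three min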
// keep it numeric: no unit symbol after the value

Check out these entries, answers already filled in.
FPIDHYLGKEM [G6PD_Y202_R198P_YF]
0.489
NKEPRYQEEPP [TJP2_Y479_D482E]
0.421

Record KRNSLYSFSDH [CCDC82_Y331_Q327R] . Reported phosphorylation enrichment: 1.33

Quick note, phosphorylation enrichment for QEIATYRRLQE [KRT14_Y415_L419Q] landed at 0.717

The sequence listed as FKGIVYSVSSD [DCX_Y70_A71S] has a reported phosphorylation enrichment of 0.722

Sure, the documented phosphorylation enrichment for KVKVEYDMTVP [AHNAK_Y964_G962V] is 0.555

// FEPDAYFDLDQ [ELP5_Y302_D303Y_YF] : phosphorylation enrichment value = 0.584

---

Target: FGFR3 (UniProt P22607)
Sequence (P22607 whole entry, looked up): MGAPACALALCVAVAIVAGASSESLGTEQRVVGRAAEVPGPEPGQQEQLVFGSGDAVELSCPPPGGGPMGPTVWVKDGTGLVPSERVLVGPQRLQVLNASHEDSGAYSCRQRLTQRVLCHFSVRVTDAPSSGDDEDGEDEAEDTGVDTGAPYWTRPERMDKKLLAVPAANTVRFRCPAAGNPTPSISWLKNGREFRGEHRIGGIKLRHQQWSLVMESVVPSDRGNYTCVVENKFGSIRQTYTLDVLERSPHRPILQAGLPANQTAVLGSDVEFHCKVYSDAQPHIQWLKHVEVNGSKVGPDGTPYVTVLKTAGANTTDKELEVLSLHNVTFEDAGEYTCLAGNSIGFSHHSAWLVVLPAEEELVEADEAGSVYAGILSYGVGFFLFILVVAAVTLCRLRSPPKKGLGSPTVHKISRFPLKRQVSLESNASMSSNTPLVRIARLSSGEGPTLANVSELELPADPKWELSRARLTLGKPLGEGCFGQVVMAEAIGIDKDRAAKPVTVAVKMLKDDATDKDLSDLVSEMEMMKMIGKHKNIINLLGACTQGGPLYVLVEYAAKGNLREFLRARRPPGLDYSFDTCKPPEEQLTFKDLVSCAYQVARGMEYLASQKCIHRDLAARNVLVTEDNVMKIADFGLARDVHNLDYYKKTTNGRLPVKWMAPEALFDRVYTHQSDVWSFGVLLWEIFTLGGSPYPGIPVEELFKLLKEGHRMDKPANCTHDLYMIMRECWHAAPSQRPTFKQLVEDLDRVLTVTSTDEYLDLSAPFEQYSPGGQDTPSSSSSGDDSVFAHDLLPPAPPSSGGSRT
Test: phosphorylation enrichment, bacterial display (enrichment ratio); higher = better substrate or ligand; peptides without Tyr show the background
Rule: T for phosphorylation enrichment not less than 0.6, F for anything less.

Sample answers from the record:
TNRSFYFKPSL [NUP153_Y382_V381F]
T
QAIDEYEKWLE [MAP9_Y603_N601D]
T
KSLFHYRQFSA [CPS1_Y1491_YF]
F
TSQSQYFSFRE [CCDC170_Y323]
T
EFFDGYWGFSV [ITGA2B_Y265_YF]
T
VDSNPYSHLMA [UBA5_Y53_R55H]
F
RNFDTYTAGLS [RHBDD1_Y264_YF]
F
PELINYHQPNS [BTK_Y361_H364P]
T

Here is the next item to consider.
q: Assess whether reported phosphorylation enrichment for GITTGYLVLKE [DNMT3B_Y588_A585T] sits at 0.6 or higher.
a: F

---

Tested on: c-Src
Test: phosphorylation enrichment, bacterial display (enrichment ratio); higher = better substrate or ligand; peptides without Tyr show the background
Each entry below lists one item and its recorded phosphorylation enrichment value.
When you answer, write just the number.

KSMFVYCTPNK [ATP2A2_Y497_S495F]
0.494
MLEVPYVDHNS [F10_Y384_R387H]
0.506

Field phosphorylation enrichment (entry EWLRRYLKNGK [HLA-C_Y195_E197K] ) reads 0.504

get_value(item= SRDTRYLVLAV [AMH_Y195] , readout=phosphorylation enrichment) returns 0.514

Measured phosphorylation enrichment, GPGLVYGVANK [FLNB_Y1833] : 2.83

Value of phosphorylation enrichment reported for the sequence LTECGYSFTTT [ACTB_Y198_R196C] is 0.671

The sequence listed as NCLREYVAGRF [CRB1_Y711] has a reported phosphorylation enrichment of 0.555

Query KMGNIYRTEFG [MRPL3_Y265_YF] yields phosphorylation enrichment of 0.532

Entry LEAVSYSSPFA [RNLS_Y190_R193P_YF] — recorded phosphorylation enrichment = 0.652

Entry KPLMPCMRYSR [SMARCE1_Y73_Y73C] , phosphorylation enrichment reported as 0.444

For reference, reported phosphorylation enrichment for IVTLKYPIEHG [ACTB_Y69_L65V] stands at 0.422

Consider GHLYAYDWIRI [BEST1_Y227_S231R] . Its measured phosphorylation enrichment is 2.28

Per the record, RLNAIYQNNLT [GSR_Y158] has phosphorylation enrichment of 1.08

phosphorylation enrichment in this record for ERWLKYFPNEQ [HS3ST5_Y244_I247N] : 0.419

The sequence listed as SVVVPYEPLEV [TP53_Y220_P223L] shows phosphorylation enrichment equal to 0.46

Please fill in: phosphorylation enrichment reported for VVGMLYVGGLP [LAMA2_Y2886] = 0.388

Per the record, PRPAGYPSTVS [CACNA1C_Y1832] has phosphorylation enrichment of 0.735

Lab note: REVPVYIGEDS [SYNM_Y460] gave phosphorylation enrichment of 0.481

Reported phosphorylation enrichment of LFIDSYEKDVA [PGM1_Y521_YF] : 0.694

AKKMKYFEGVS [PRKDC_Y682_I680M] yielded phosphorylation enrichment of 0.394

Entry EIASHYRHLLR [ZBTB46_Y14_T11A] ; phosphorylation enrichment = 0.421

phosphorylation enrichment recorded for this sequence, FIGRIYLFLTK [GARS1_Y414_YF] , is 0.632

Briefly, phosphorylation enrichment measured for SLESAYPEVSQ [TTF1_Y357_G360V] : 0.523

Entry LLIVEYAKYGS [RET_Y806] ; phosphorylation enrichment = 1.23

What the record says about KIIRWYVSSEG [ANK2_Y3907_R3906W] : phosphorylation enrichment is 0.455
